- target.entity: protein kinase A (PKA) (Homo sapiens, UniProt P17612)
measured.endpoint: Ki
Answer format: value, then unit.

Measured Ki, O=C1[C@H](Cc2ccc(O)cc2)N=C(c2ccc(O)cc2)c2cc(Cl)ccc2N1Cc1ccc(-c2ccccc2)cc1 [L-Tyr,BnzPh] : 104 µM

###

- target.entity: Yes (Homo sapiens, UniProt P07947)
- Sequence (P07947 whole entry, species assumed): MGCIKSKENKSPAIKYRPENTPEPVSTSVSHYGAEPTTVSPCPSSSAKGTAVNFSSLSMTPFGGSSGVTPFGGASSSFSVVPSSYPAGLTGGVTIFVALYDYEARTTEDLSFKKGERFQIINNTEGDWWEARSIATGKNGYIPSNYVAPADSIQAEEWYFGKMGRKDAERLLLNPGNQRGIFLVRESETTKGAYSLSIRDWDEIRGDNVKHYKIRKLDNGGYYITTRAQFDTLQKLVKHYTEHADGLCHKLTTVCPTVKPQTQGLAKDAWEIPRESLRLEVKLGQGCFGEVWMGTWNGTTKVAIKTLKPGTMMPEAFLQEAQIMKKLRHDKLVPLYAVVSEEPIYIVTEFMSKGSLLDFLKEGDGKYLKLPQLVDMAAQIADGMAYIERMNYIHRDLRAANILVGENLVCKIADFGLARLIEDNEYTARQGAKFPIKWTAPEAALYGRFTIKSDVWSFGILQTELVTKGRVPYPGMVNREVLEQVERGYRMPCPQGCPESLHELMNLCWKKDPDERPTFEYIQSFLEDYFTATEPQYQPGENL
measured.endpoint: pKi
One number for each entry, as −log10 of the molar value.

The compound `O=C1[C@H](Cc2ccc(O)cc2)N=C(c2ccc(O)cc2)c2cc(Cl)ccc2N1Cc1ccc(-c2ccccc2)cc1` , when measured on Yes (Homo sapiens, UniProt P07947), yielded pKi of 4.30
